# Test name: Oral bioavailability in mouse at 10 mg/kg
# Assay type: ADME, organism-based
# Condition label: in vivo
Please go through the items and note down their bioavailability.
Answers are plain numbers, in %.

Record excerpt, results attached:
1) CC(C)(C)[C@H](NC(=O)C(F)(F)F)C(=O)N1C[C@@H]2CCC[C@@H]2[C@H]1C(=O)N[C@H](C#N)C[C@@H]1CCNC1=O = 13.3
2) CC(C)(C)[C@H](NC(=O)C(F)(F)F)C(=O)N1C[C@H]2[C@@H]([C@H]1C(=O)N[C@H](C#N)C[C@@H]1CCNC1=O)C2(C)C = 32.7
3) CC(C)(C)NC(=O)C(=O)[C@H](C[C@@H]1CCNC1=O)NC(=O)[C@@H]1[C@H]2CCC[C@H]2CN1C(=O)[C@@H](NC(=O)C(F)(F)F)C1CCCC1 = 30.8

Lab note: each molecule below needs its bioavailability filled in.
1. N#C[C@H](C[C@@H]1CCNC1=O)NC(=O)[C@@H]1[C@H]2CCC[C@H]2CN1C(=O)[C@@H](NC(=O)C(F)(F)F)C1CCCCC1
2. CC(C)(C)NC(=O)C(=O)[C@H](C[C@@H]1CCNC1=O)NC(=O)[C@@H]1[C@H]2CCC[C@H]2CN1C(=O)[C@@H](NC(=O)C(F)(F)F)C1CCCCC1

1. 14.2
2. 32
